Listed here are molecules together with their documented solubility (mole fraction).
Conditions: in methanol, 303.15 K
When you answer, write just the number.

Worked cases, solubility (mole fraction) given:
{"columns": ["STRUCTURE", "RECORDED_VALUE"],
 "data": [
  ["COc1ccc(-c2nn(-c3ccccc3)cc2/C=C/C(=O)c2nc3ccccc3[nH]2)cc1", 0.000149],
  ["COc1cccc(-c2nn(-c3ccccc3)cc2/C=C/C(=O)c2nc3ccccc3[nH]2)c1", "3.15e-05"],
  ["O=C(/C=C/c1cn(-c2ccccc2)nc1-c1ccc(Cl)cc1)c1nc2ccccc2[nH]1", "5.1e-05"],
  ["O=C(/C=C/c1cn(-c2ccccc2)nc1-c1ccccc1Cl)c1nc2ccccc2[nH]1", 0.000116]
]}

q: Look up solubility (mole fraction): O=C(/C=C/c1cn(-c2ccccc2)nc1-c1ccccc1)c1nc2ccccc2[nH]1
a: 6.53e-05

q: Look up solubility (mole fraction): O=C(/C=C/c1cn(-c2ccccc2)nc1-c1cccc([N+](=O)[O-])c1)c1nc2ccccc2[nH]1
a: 4.85e-05

q: Look up solubility (mole fraction): COc1ccc(-c2nn(-c3ccccc3)cc2/C=C/C(=O)c2nc3ccccc3[nH]2)cc1OC
a: 3.6e-05
